Ref: patent US20240116985A1

Entries and their IC50 values follow.
- Assay Target: beta-catenin/TCF4 engagement (Homo sapiens)
- Construct: expressed in transfected cells; host or cells: HEK293
- Sequence (P35222 1-781): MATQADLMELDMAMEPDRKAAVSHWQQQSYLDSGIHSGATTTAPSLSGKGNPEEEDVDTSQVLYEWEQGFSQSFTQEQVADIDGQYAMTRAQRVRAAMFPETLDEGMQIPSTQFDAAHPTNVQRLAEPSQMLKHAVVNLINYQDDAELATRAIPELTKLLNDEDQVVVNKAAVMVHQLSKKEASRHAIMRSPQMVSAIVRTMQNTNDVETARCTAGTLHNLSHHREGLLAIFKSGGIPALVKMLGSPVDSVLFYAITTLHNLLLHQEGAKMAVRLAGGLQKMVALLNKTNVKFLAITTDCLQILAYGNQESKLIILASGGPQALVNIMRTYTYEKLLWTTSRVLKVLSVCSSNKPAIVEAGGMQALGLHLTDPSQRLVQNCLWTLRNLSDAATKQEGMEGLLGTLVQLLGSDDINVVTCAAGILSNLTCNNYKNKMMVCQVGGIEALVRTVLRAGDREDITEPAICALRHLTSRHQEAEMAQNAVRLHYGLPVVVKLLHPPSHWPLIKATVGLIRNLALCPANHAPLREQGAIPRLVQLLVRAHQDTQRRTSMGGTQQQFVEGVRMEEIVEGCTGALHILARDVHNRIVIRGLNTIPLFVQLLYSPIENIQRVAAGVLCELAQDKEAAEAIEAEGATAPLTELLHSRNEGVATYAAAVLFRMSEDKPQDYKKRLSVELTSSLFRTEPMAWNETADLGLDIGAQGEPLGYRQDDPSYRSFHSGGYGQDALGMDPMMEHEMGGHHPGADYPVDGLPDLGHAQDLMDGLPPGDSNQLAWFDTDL
- Test Details: Nano-BRET target engagement assay (B-cat-Halo & TCF4-Luc in HEK293 cells)
- Type: cell-based
- Condition Notes: read-out: NanoBRET Abs IC50
Measured Endpoint: IC50 (µM)

1. CC(=O)N1CCC[C@]12CC=CCCCC1(CCCC=CCCCOC(=O)N3CC[C@@](C(=O)N[C@@H](Cc4ccsc4)C(=O)N[C@@H](Cc4csc5ccccc45)C(=O)N[C@@H](CCC(N)=O)C(=O)N[C@@H](CCCCNC(=O)C45CC6CC(CC(C6)C4)C5)C(N)=O)(C3)NC(=O)[C@H](CC(N)=O)NC(=O)[C@H](Cc3ccccc3)NC(=O)[C@H](C)NC(=O)[C@H](C)NC(=O)[C@H](CC(=O)O)NC(=O)[C@H](CC(=O)O)NC1=O)NC(=O)[C@H](CC(C)(C)C)NC(=O)[C@H](CC(=O)O)NC2=O (some centres unmarked) [I-919] ... 15.2
2. CC(=O)N1CCC[C@]12CC=CCCCC1(CCCC=CCCCOC(=O)N3CC[C@@](C(=O)N[C@@H](Cc4ccccc4C)C(=O)N[C@@H](Cc4csc5ccccc45)C(=O)N[C@@H](Cc4c[nH]cn4)C(N)=O)(C3)NC(=O)[C@H](CC(N)=O)NC(=O)[C@H](Cc3ccccc3)NC(=O)[C@H](C)NC(=O)[C@H](C)NC(=O)[C@H](CC(=O)O)NC(=O)[C@H](CC(=O)O)NC1=O)NC(=O)[C@H](CC(C)(C)C)NC(=O)[C@H](CC(=O)O)NC2=O (some centres unmarked) [I-782] ... 12.2
3. CC(=O)NCCCC[C@@H]1NC(=O)[C@H](Cc2ccccc2)NC(=O)[C@H](C)NC(=O)C(C)(C)NC(=O)[C@H](Cc2cccc(C(=O)O)c2)NC(=O)[C@H](CC(=O)O)NC(=O)C2(CCCC=CCCCOC(=O)N3CC[C@@](C(=O)N[C@@H](Cc4ccsc4)C(=O)N[C@@H](Cc4csc5ccccc45)C(=O)N[C@@H](C)C(=O)N[C@@H](C)C(N)=O)(C3)NC1=O)CCCC=CC[C@]1(CCCN1C(C)=O)C(=O)N[C@@H](CC(=O)O)C(=O)N[C@@H](CC(C)(C)C)C(=O)N2 (some centres unmarked) [I-2578] ... 5.5
4. CC(=O)N1CCC[C@]12CC=CCCCC1(CCCC=CCCCOC(=O)N3CC[C@@](C(=O)N[C@@H](Cc4ccsc4)C(=O)N[C@@H](Cc4csc5ccccc45)C(=O)N[C@@H](CCC(N)=O)C(=O)N[C@@H](CCCCNC(=O)C4CCN(C5CCN(C)CC5)CC4)C(N)=O)(C3)NC(=O)[C@H](CC(N)=O)NC(=O)[C@H](Cc3ccccc3)NC(=O)[C@H](C)NC(=O)[C@H](C)NC(=O)[C@H](CC(=O)O)NC(=O)[C@H](CC(=O)O)NC1=O)NC(=O)[C@H](CC(C)(C)C)NC(=O)[C@H](CC(=O)O)NC2=O (some centres unmarked) [I-907] ... 27.8
5. CC(=O)N1CCC[C@]12CC=CCCCC1(CCCC=CCCCOC(=O)N3CC[C@@](C(=O)N[C@@H](Cc4ccccc4Cl)C(=O)N[C@@H](Cc4csc5ccccc45)C(=O)N[C@@H](CCC(N)=O)C(N)=O)(C3)NC(=O)[C@H]([C@@H](C)O)NC(=O)[C@H](Cc3ccccc3)NC(=O)[C@H](C)NC(=O)[C@H](C)NC(=O)[C@H](CC(N)=O)NC(=O)[C@H](CC(=O)O)NC1=O)NC(=O)[C@H](CC(C)(C)C)NC(=O)[C@H](CC(=O)O)NC2=O (some centres unmarked) [I-1014] ... 14.3
